Test: Plasma pharmacokinetics in patients
Type: in vivo, human
Conditions: human, plasma, intravenous, t1/2,z, All dose levels, C0D1, onalespib alone, n = 27, geometric mean
quantity-name: half-life (h)
Give your result in h as a bare value.

Q: Please report the recorded half-life for "CC(C)c1cc(C(=O)N2Cc3ccc(CN4CCN(C)CC4)cc3C2)c(O)cc1O" .
A: 10

* * *

Experiment: Plasma pharmacokinetics in patients
Assay type: in vivo, human
Conditions: human, plasma, iv, Cmax, DL3, C1D1, AT7519 27 mg/m^2 IV after onalespib 80 mg/m^2, n = 4, geometric mean
quantity-name: Cmax (ng/mL)
Entry rule: numbers only, all in ng/mL.

Q: For the compound "O=C(NC1CCNCC1)c1n[nH]cc1NC(=O)c1c(Cl)cccc1Cl" , what Cmax is on record?
A: 602

* * *

Assay: Plasma pharmacokinetics in patients
Assay type: in vivo, human
Conditions: human, plasma, iv, t1/2,z, DL2, C1D1, AT7519 21 mg/m^2 IV after onalespib 80 mg/m^2, n = 15, geometric mean
quantity-name: half-life (h)
Express the result in h but write the number alone.

Q: Query: half-life; subject: "O=C(NC1CCNCC1)c1n[nH]cc1NC(=O)c1c(Cl)cccc1Cl"
A: 11.1

* * *

Test: Plasma pharmacokinetics in patients
Format: in vivo, human
Details: human, plasma, intravenous, t1/2,z, DL3, C1D11, onalespib 80 mg/m^2 with AT7519 27 mg/m^2, n = 3, geometric mean
quantity-name: half-life (h)
# number only, unit h dropped from output

Q: Consider the compound "CC(C)c1cc(C(=O)N2Cc3ccc(CN4CCN(C)CC4)cc3C2)c(O)cc1O" and give its measured half-life.
A: 6.7

* * *

Test: Plasma pharmacokinetics in patients
Assay type: in vivo, human
Details: human, plasma, iv, Cmax, DL3, C1D11, AT7519 27 mg/m^2 IV after onalespib 80 mg/m^2, n = 2, geometric mean
quantity-name: Cmax

Q: // query Cmax value for entry O=C(NC1CCNCC1)c1n[nH]cc1NC(=O)c1c(Cl)cccc1Cl [AT7519]
A: 581 ng/mL

* * *

Test: Plasma pharmacokinetics in patients
Format: in vivo, human
Details: human, plasma, iv, AUC, DL2, C1D11, AT7519 21 mg/m^2 IV after onalespib 80 mg/m^2, n = 11, geometric mean
quantity-name: AUC (ng·h/mL)
Hi! Could you send only the number? It should be in ng·h/mL, unit omitted.

Q: Bench note: what AUC did "O=C(NC1CCNCC1)c1n[nH]cc1NC(=O)c1c(Cl)cccc1Cl" show?
A: 2450

* * *

Experiment: Plasma pharmacokinetics in patients
Type: in vivo, human
Conditions: human, plasma, iv, AUC, DL3, C1D11, AT7519 27 mg/m^2 IV after onalespib 80 mg/m^2, n = 2, geometric mean
quantity-name: AUC (ng·h/mL)
Output spec: scalar in ng·h/mL, unitless text.

Q: I am curious: what AUC value has been reported for "O=C(NC1CCNCC1)c1n[nH]cc1NC(=O)c1c(Cl)cccc1Cl" ?
A: 2700

* * *

Assay: Plasma pharmacokinetics in patients
Type: in vivo, human
Settings: human, plasma, intravenous, AUC, DL1, C1D1, onalespib 40 mg/m^2 with AT7519 21 mg/m^2, n = 4, geometric mean
quantity-name: AUC (ng·h/mL)
Number in ng·h/mL, nothing else.

Q: Fill blank: measured AUC of the compound "CC(C)c1cc(C(=O)N2Cc3ccc(CN4CCN(C)CC4)cc3C2)c(O)cc1O" is ____.
A: 621

Measured values drawn from paper PMC7954579 for this set.
